- Measured On: T1, Ax1 protein, extracellular domain (human, UniProt P30530 26-451)
- T1 construct: extracellular domain; also called Axl; Ark
- T1 sequence (looked up): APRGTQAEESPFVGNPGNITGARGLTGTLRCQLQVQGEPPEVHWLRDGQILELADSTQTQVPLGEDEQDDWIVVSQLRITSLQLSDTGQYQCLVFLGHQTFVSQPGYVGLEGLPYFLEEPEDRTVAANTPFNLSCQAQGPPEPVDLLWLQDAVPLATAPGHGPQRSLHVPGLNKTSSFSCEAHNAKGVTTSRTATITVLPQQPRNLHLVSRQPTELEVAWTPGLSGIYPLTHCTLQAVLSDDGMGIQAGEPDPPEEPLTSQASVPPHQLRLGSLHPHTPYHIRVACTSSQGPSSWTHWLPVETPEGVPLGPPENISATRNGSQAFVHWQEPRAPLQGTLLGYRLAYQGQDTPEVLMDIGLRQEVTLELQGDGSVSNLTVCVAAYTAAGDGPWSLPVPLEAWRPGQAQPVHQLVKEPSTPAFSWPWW
- Method Description: ELISA, mutant diluted 1:3
Readout Kind: Affinity ELISA CPE mutant ratio (1:3, pH 6.0/7.4)
Numbers only.

Sample answers from the record:
Binder: HC-A106L (antibody, V domains shown, CPE single point mutant) VH: EVQLVQSGAEVKKPGATVKISCKVSGYSFTGHTMNWIRQPPGKGLEWIGLIKPSNGGTSYNQKFKGRVTISADKSISTAYLQWSSLKASDTAMYYCAHGHYESYFLMDYWGQGTLVTVSS VL: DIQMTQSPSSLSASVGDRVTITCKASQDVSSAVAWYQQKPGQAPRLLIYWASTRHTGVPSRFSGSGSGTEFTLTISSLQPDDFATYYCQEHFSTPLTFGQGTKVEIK
Assay Result: 21.5
//
Binder: LC-P095C (antibody, V domains shown, CPE single point mutant) VH: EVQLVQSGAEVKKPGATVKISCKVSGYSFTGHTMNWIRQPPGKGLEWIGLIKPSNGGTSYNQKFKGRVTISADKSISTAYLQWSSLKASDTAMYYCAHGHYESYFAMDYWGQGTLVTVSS VL: DIQMTQSPSSLSASVGDRVTITCKASQDVSSAVAWYQQKPGQAPRLLIYWASTRHTGVPSRFSGSGSGTEFTLTISSLQPDDFATYYCQEHFSTCLTFGQGTKVEIK
Assay Result: 2.35
//
Binder: HC-A106D (antibody, V domains shown, CPE single point mutant) VH: EVQLVQSGAEVKKPGATVKISCKVSGYSFTGHTMNWIRQPPGKGLEWIGLIKPSNGGTSYNQKFKGRVTISADKSISTAYLQWSSLKASDTAMYYCAHGHYESYFDMDYWGQGTLVTVSS VL: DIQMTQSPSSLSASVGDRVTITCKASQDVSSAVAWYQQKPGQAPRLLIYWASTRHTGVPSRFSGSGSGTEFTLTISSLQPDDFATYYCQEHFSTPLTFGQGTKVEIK
Assay Result: 3.39

Hi, could you look up Affinity ELISA CPE mutant ratio (1:3, pH 6.0/7.4) for each item in my list?
1. LC-F092D (antibody, V domains shown, CPE single point mutant) VH: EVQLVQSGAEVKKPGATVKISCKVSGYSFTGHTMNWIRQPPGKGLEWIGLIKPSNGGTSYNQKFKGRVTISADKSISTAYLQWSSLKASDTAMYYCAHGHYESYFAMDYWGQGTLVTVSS VL: DIQMTQSPSSLSASVGDRVTITCKASQDVSSAVAWYQQKPGQAPRLLIYWASTRHTGVPSRFSGSGSGTEFTLTISSLQPDDFATYYCQEHDSTPLTFGQGTKVEIK
2. LC-P095E (antibody, V domains shown, CPE single point mutant) VH: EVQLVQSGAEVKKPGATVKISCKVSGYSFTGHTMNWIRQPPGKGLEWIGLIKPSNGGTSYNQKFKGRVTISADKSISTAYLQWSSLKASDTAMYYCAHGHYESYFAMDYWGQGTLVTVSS VL: DIQMTQSPSSLSASVGDRVTITCKASQDVSSAVAWYQQKPGQAPRLLIYWASTRHTGVPSRFSGSGSGTEFTLTISSLQPDDFATYYCQEHFSTELTFGQGTKVEIK

A)
1: 2.97; 2: 7.12
